IC50 reference
# Measured target: recombinant human his-UBA6 enzyme (Homo sapiens (Human), UniProt A0AVT1)
# Sequence (A0AVT1 whole entry): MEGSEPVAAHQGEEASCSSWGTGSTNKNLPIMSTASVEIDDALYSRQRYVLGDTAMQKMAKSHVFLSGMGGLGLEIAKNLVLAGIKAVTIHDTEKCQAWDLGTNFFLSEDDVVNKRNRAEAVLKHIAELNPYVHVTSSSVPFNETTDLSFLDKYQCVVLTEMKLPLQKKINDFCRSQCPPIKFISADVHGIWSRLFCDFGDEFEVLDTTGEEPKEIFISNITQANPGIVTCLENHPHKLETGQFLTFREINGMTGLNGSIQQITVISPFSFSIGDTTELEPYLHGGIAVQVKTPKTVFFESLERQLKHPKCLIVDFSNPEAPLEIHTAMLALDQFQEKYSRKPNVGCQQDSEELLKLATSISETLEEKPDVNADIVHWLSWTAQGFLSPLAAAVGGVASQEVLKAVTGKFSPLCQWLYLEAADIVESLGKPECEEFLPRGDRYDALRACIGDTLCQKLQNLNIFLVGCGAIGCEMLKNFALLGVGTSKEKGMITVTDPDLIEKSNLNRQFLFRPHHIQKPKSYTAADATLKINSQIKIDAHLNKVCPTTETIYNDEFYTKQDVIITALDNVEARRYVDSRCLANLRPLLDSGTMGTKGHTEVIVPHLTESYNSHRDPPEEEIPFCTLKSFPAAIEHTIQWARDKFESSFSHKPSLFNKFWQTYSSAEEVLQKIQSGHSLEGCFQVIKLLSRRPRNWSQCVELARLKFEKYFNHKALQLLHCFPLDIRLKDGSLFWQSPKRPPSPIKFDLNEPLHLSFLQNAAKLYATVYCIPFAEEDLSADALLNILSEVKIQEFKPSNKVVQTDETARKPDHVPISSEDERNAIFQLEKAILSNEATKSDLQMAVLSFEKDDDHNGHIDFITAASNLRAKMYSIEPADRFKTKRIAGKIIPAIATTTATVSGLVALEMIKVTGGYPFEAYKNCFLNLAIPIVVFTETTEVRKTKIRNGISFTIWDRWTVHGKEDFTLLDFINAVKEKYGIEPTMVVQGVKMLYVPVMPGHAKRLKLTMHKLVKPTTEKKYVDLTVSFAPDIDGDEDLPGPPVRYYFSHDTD
# Test details: UBA6 AlphaScreen Assay
Property name: IC50

smiles_input=NS(=O)(=O)OC[C@@H]1C[C@@H](n2ccc3c(-c4cc5ccc(C(F)(F)F)cc5[nH]4)ncnc32)C[C@@H]1O measured_target="recombinant human his-UBA6 enzyme (Homo sapiens (Human), UniProt A0AVT1)" endpoint_value="0.05 to 2 µM"
smiles_input=Cc1ccc2cc(-c3ncnc4c3ccn4[C@@H]3C[C@@H](COS(N)(=O)=O)[C@@H](O)C3)[nH]c2c1 measured_target="recombinant human his-UBA6 enzyme (Homo sapiens (Human), UniProt A0AVT1)" endpoint_value="≤ 0.05 µM"
smiles_input=COc1ccc2[nH]c(-c3ncnc4c3ccn4[C@@H]3C[C@@H](COS(N)(=O)=O)[C@@H](O)C3)cc2c1 measured_target="recombinant human his-UBA6 enzyme (Homo sapiens (Human), UniProt A0AVT1)" endpoint_value="≤ 0.05 µM"
smiles_input=COc1ccc2cc(-c3ncnc4c3ccn4[C@@H]3C[C@@H](COS(N)(=O)=O)[C@@H](O)C3)n(C(=O)OC(C)(C)C)c2c1 measured_target="recombinant human his-UBA6 enzyme (Homo sapiens (Human), UniProt A0AVT1)" endpoint_value="0.05 to 2 µM"
